- Target Of Assay: UniProt P0DTD1
- Method Description: biochemical
- Type: biochemical
- Test Settings: SARS-CoV-2 nsp3 macrodomain TR-FRET single point; concentration 99.5 uM; n=2
Recorded perc_inhibition_mean, one value per entry.

# Structure Smiles, perc_inhibition_mean / %
rows = [
    ("O=C(CCN(Cc1cccc(Cl)c1)C(=O)c1c[nH]c(=O)cn1)N1CCNCC1", 0.98),
    ("O=C(CCN(Cc1cccc(Cl)c1)C(=O)[C@@H]1CNCC12CC2)N1CCNCC1", 2.382),
    ("Cc1n[nH]nc1C(=O)N1CCC(c2ccn3ncc(C(=O)N4CCCCC4)c3c2)CC1", 45.786),
    ("O=C1C[C@H](CNC(=O)c2ccc(NC(=O)Nc3ccccc3)cc2)CCN1", 4.013),
]
